Procedure Summary: chemical genetic growth profiling, strain panel (AID 1159580);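 note: tested at 20 µM; growth read once vehicle control cultures reached saturation at 30 °C; lower values mean less growth of the strain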
Measurement Parameters: S. cerevisiae deletion strains, growth OD, locus YDL035C, strain GPR1, active compounds read low
The whole screen tested about 5,500 compounds, of which about 2,000 (36%) were called active. Another 18% or so got no clear call; they are omitted. The list shows a part of the results.
Decision: normalized growth beneath 1 gives Satisfied; normalized growth meeting or exceeding 1 gives Not satisfied.

COc1c2c(c(CC=C(C)C)c3oc(=O)c(-c4ccc(O)cc4)c(O)c13)OC(C)(C)C=C2	Satisfied
CCC(C(N)=O)c1ccccc1 (stereo unspecified)	Not satisfied
CC(C)N(C(=O)CCl)c1ccccc1	Not satisfied
COc1c(CC=C(C)C)c2c(c3oc(=O)c(-c4ccc(OC(C)=O)cc4)c(OC(C)=O)c13)C=CC(C)(C)O2	Not satisfied
C=C1CC[C@H](O)C/C1=C/C=C1\CCC[C@]2(C)C([C@H](C)/C=C/[C@H](C)C(C)C)CC[C@@H]12 (stereo partly specified)	Satisfied
COc1ccc(C[C@H]2NC[C@H](O)[C@H]2OC(C)=O)cc1	Satisfied
C[CH2][Hg][S]c1ccccc1C(=O)O	Satisfied
COc1ccc(C(=O)c2ccccc2O)c(O)c1	Satisfied
